# tgt: human σ2/TMEM97 receptor (Homo sapiens, UniProt Q5BJF2)
# Sequence (Q5BJF2 whole entry): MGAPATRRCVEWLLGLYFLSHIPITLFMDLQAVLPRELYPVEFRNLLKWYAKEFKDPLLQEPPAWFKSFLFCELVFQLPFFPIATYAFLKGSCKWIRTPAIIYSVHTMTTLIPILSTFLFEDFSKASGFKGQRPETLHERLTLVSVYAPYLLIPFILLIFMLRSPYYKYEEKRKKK
# method_summary: Binding assay to human σ2/TMEM97 receptor
# setup_conditions: transfected HEK-293 membranes, 10 nM [3H]-DTG, 25° C. 120 minutes; + may also stand for 1-50% inhibition at 1 or 10 μM; read-out: Binding σ-2 Ki
Can you tell me Ki for the items I'm about to list?

INPUT: Notebook entry, human σ2/TMEM97 receptor (Homo sapiens, UniProt Q5BJF2) assay: Ki of `CN(CC(C)(C)C)C1CCN(S(=O)(=O)c2ccc(N3CCOC3=O)nc2)CC1` = ?
OUTPUT: > 1000 nM

INPUT: // repeat for `O=C1OCCN1c1ccc(S(=O)(=O)N2CCCC3(CCN(CC4CCOCC4)CC3)C2)cn1` and report
OUTPUT: < 100 nM

INPUT: Also, `C[C@@H]1CN(c2ccc(S(=O)(=O)N[C@H]3CCN(Cc4ccccc4)C3)cn2)C[C@H](C)O1` please.
OUTPUT: > 1000 nM

INPUT: Same question, `O=C1OCCN1c1ccc(S(=O)(=O)N2CCCC3(CCN(Cc4ccccc4)CC3)C2)cn1` this time
OUTPUT: < 100 nM

====

# tgt: human σ1 receptor (Homo sapiens, UniProt Q99720)
# Sequence (Q99720 whole entry): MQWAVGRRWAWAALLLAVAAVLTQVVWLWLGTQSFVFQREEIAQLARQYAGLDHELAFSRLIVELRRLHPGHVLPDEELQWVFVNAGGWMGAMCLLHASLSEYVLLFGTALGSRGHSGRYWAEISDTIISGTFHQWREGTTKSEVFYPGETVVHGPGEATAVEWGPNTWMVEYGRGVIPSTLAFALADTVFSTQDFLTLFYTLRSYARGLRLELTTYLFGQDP
Would you kindly list Ki for each of these compounds?

INPUT: Recorded Ki for `O=S(=O)(N[C@@H]1CCN(Cc2ccc(C(F)(F)F)nc2)C1)c1ccc(N2CCOCC2)nc1` , please?
OUTPUT: 500 to 1000 nM

INPUT: Subsequent entry: `CCC(=O)Nc1ccc(S(=O)(=O)N2CCCC3(CCN(CCC(C)(C)C)CC3)C2)cn1`
OUTPUT: < 100 nM

INPUT: Same for `CC(C)(C)CCN1CCC2(CCCN(S(=O)(=O)c3ccc(N4CCS(=O)(=O)CC4)nc3)C2)CC1`
OUTPUT: 100 to 500 nM

INPUT: Consider next the compound `O=C1OCCN1c1ccc(S(=O)(=O)N2CCC3(CCN(Cc4ccccc4F)CC3)C2)cn1` in the same way.
OUTPUT: 100 to 500 nM

INPUT: Subsequent entry: `CN(CC1CCOCC1)[C@H]1CC[C@H](NS(=O)(=O)c2ccc(N3CCC4(CCOC4)CC3)nc2)CC1`
OUTPUT: 500 to 1000 nM

INPUT: Cool, now `CC(=O)Nc1ccc(S(=O)(=O)N2CCCC3(CCN(CCC(C)(C)C)CC3)C2)cn1`
OUTPUT: 100 to 500 nM

INPUT: Subsequent entry: `CN(Cc1ccc(F)c(F)c1)[C@H]1CC[C@H](NS(=O)(=O)c2ccc(N3CCC4(CCOC4)CC3)nc2)CC1`
OUTPUT: > 1000 nM

INPUT: Please do the same for `CN(C)c1ccc(S(=O)(=O)N[C@@H]2CCN(Cc3ccccc3)C2)cn1` as well.
OUTPUT: < 100 nM

INPUT: Next compound: `CC(C)(C)CCN1CCC2(CCCN(S(=O)(=O)c3ccc(C(F)(F)F)nc3)C2)CC1`
OUTPUT: < 100 nM

====

# tgt: human σ1 receptor (Homo sapiens, UniProt Q99720)
pKi: −log10 of the molar value.
Exercise: for every item that follows, state its recorded pKi.

INPUT: Query: pKi; subject: O=S(=O)(c1ccc(N2CCC(F)(F)CC2)nc1)N1CCC(NCc2ccccc2)CC1 [Example 170]
OUTPUT: < 6.00

INPUT: Next record, please: CN(Cc1ccc(F)c(C#N)c1)[C@H]1CC[C@H](NS(=O)(=O)c2ccc(N3CCOCC3)nc2)CC1 [Example 58]
OUTPUT: < 6.00

INPUT: What do we get for CC(C)(C)CN1CCC2(CC1)CCN(S(=O)(=O)c1ccc(N3CCOC3=O)nc1)CC2 [Example 143] ?
OUTPUT: < 6.00

INPUT: Try O=S(=O)(c1ccc(N2CCC(F)(F)CC2)nc1)N1CCCC2(CCN(CC3CCOCC3)CC2)C1 [Example 101] next.
OUTPUT: > 7.00

INPUT: Can you handle O=S(=O)(c1ccc(N2CCOCC2)nc1)N1CCC2(CC1)CN(Cc1ccccc1)C2 [Example 47] next?
OUTPUT: < 6.00

INPUT: O=S(=O)(c1ccc(N2CCC(F)(F)CC2)nc1)N1CCC2(CCN(Cc3ccccc3)CC2)C1 [Example 82] , same question.
OUTPUT: > 7.00

INPUT: Next entry: CN(CCC(C)(C)C)[C@H]1CC[C@H](NS(=O)(=O)c2ccc(N3CCC4(CCOC4)CC3)nc2)CC1 [Example 181]
OUTPUT: 6.00 to 6.30

INPUT: Another compound: CC(C)(C)CCN1CCCC2(CCN(S(=O)(=O)c3ccc(N4CCOCC4)nc3)CC2)C1 [Example 75]
OUTPUT: > 7.00

INPUT: Now this one: CC(C)(C)CCN1CCC2(CCCN(S(=O)(=O)c3ccc(N4CCOCC4=O)nc3)C2)CC1 [Example 120]
OUTPUT: 6.30 to 7.00

INPUT: Could you do the same for CN(Cc1ccncc1)[C@H]1CC[C@H](NS(=O)(=O)c2ccc(N3CCOCC3)nc2)CC1 [Example 60] , please?
OUTPUT: < 6.00

INPUT: Please do the same for CC(C)(C)CCN1CCCC2(CCN(S(=O)(=O)c3ccc(N4CCC(F)(F)CC4)nc3)CC2)C1 [Example 76] as well.
OUTPUT: > 7.00

INPUT: Note, next up: CC(C)(C)CN1CCCC2(CCN(S(=O)(=O)c3ccc(N4CCC(F)(F)CC4)nc3)CC2)C1 [Example 85]
OUTPUT: > 7.00

INPUT: Same read-out for Cc1ccc(S(=O)(=O)N2CCC3(CCN(CCC(C)(C)C)CC3)CC2)cn1 [Example 110] ?
OUTPUT: > 7.00

INPUT: And CC(C)(C)CCN1CCC2(CC1)CCN(S(=O)(=O)c1ccc(N3CCCCC3=O)nc1)CC2 [Example 132] ?
OUTPUT: 6.30 to 7.00

INPUT: // repeat for CN(CC(C)(C)C)C1CCN(S(=O)(=O)c2ccc(N3CCC(F)(F)CC3)nc2)CC1 [Example 100] and report
OUTPUT: > 7.00

INPUT: Item: N#Cc1ccc(CN2CCC3(CCCN(S(=O)(=O)c4ccc(N5CCOC5=O)nc4)C3)CC2)c(F)c1 [Example 125]
OUTPUT: > 7.00

INPUT: Quick one: N#Cc1cc(CN[C@H]2CC[C@H](NS(=O)(=O)c3ccc(N4CCOCC4)nc3)CC2)ccc1F [Example 52]
OUTPUT: < 6.00

INPUT: Also check O=S(=O)(N[C@@H]1CCN(Cc2ccc(F)cc2)C1)c1ccc(N2CCOCC2)nc1 [Example 36]
OUTPUT: > 7.00

INPUT: Another: CN(Cc1ccccc1)[C@H]1CC[C@H](NS(=O)(=O)c2ccc(N3CCC4(CCCO4)CC3)nc2)CC1 [Example 176]
OUTPUT: < 6.00

INPUT: Can you handle O=C1OCCN1c1ccc(S(=O)(=O)N2CCC3(CCCN(Cc4cc(F)ccc4F)C3)CC2)cn1 [Example 146] next?
OUTPUT: 6.00 to 6.30

INPUT: Another compound to look at: CCc1ccc(S(=O)(=O)N2CCC3(CCN(CCC(C)(C)C)CC3)CC2)cn1 [Example 109]
OUTPUT: > 7.00

====

# tgt: human σ2/TMEM97 receptor (Homo sapiens, UniProt Q5BJF2)
# method_summary: Binding assay to human σ2/TMEM97 receptor
# setup_conditions: transfected HEK-293 membranes, 10 nM [3H]-DTG, 25° C. 120 minutes; + may also stand for 1-50% inhibition at 1 or 10 μM; read-out: Binding σ-2 Ki
Exercise: state measured Ki for each of the compounds provided.

INPUT: Which Ki is listed for C[C@H]1CN(Cc2ccccc2)C[C@@H]1NS(=O)(=O)c1ccc(N2CCOCC2)nc1 [Example 6] ?
OUTPUT: 500 to 1000 nM

INPUT: # iterate: COc1ccc(CNC[C@H]2CCCN(S(=O)(=O)c3ccc(N4CCOCC4)nc3)C2)cn1 [Example 33]
OUTPUT: < 100 nM

INPUT: Now try CC(C)(C)CCN1CCCC2(CCN(S(=O)(=O)c3ccc(-c4ccncc4)nc3)CC2)C1 [Example 115] .
OUTPUT: < 100 nM

INPUT: Input N#Cc1cccc(CN2CC[C@@H](NS(=O)(=O)c3ccc(N4CCOCC4)nc3)C2)c1 [Example 40]
OUTPUT: > 1000 nM

INPUT: Here is the next compound: O=S(=O)(NC1CCN(Cc2ccc(Cl)cc2)CC1)c1ccc(N2CCOCC2)nc1 [Example 10]
OUTPUT: > 1000 nM

INPUT: Cool, now CC(C)(C)CCN1CCC2(CCCN(S(=O)(=O)c3ccc(N4CCC5(CCCO5)CC4)nc3)C2)CC1 [Example 98]
OUTPUT: < 100 nM
